The measurements presented in this section are drawn from PubChem BioAssay (NCATS).

# methodDescription: qHTS for Inhibitors of Plasmodium falciparum (CP250) proliferation (AID 504320);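 further: plate controls were DMSO vehicle for no effect and 0.29 µM artemisinin control for full effect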
# recordedConditions: P. falciparum CP250 in erythrocytes, SYBR Green DNA, 72 h; series mostly up to 6.7 µM
Records with an inconclusive call do not appear. Activity calls are given as the source filed them. The call rests on the fitted dose curve; in most records, active means well fitted inhibition curve with a large enough effect; inconclusive means small, poorly fitted or top-dose-only effect, or effect the other way; inactive means flat fitted curve, though single readings scatter.
Would you mind answering with one of these outcomes? true (1) for active, false (0) for inactive

compound: COC(=O)[C@H]1[C@@H](C)N(Cc2ccccc2)C(=O)N[C@H]1c1ccccc1
assignedLabel: false (0)

compound: COC(=O)C1=C(C(=O)OC)[C@@H]2Nc3ccccc3[C@@]23C[C@@H](C(=O)OC)N=C3N1
assignedLabel: false (0)

compound: COC(=O)C1=C(C(=O)OC)[C@@H]2N(Cc3ccccc3)c3ccccc3[C@@]23C[C@@H](C(=O)OC)N(C(=O)CC(C)C)C3=N1
assignedLabel: false (0)

compound: COc1cccc([C@@H]2Oc3ccc(Br)cc3[C@H](O)[C@@H]2O)c1
assignedLabel: false (0)

compound: COC(=O)CCCC1=CC2=C(c3ccccc3)C(=O)C(C)(OC(=O)C3CCCC3)C(=O)C2=CN1CCCOC(C)C (centres undefined)
assignedLabel: false (0)

Recorded test call requested for CCCCC1=CC2=CC(=O)C(C)(OC(=O)CC)C(=O)C2=CN1CCc1ccccn1 (centres undefined) false (0)

Can you check COC(=O)[C@@]1(C=C2c3ccc(F)cc3[C@@H](OC)[C@@H]2C)[C@@H]2CC=C[C@@H]21 next? false (0)

CCCCCCC(=O)Cc1cc(OC)c(OC)cc1C=C(C(=O)OCC)C(=O)OCC ? false (0)

Then what about the compound CC(=O)OC[C@H]1O[C@H](C#Cc2ccc(C)cc2C)C=C[C@H]1OC(C)=O ? false (0)
